# test.system: T1, human c-Met (Sino Biological) (human, UniProt P08581 25-932, limits assumed)
# T1 construct: Analyte in the Biacore assay; also called antigen (c-Met); printed as "human c-Met antibody (Sino Biological, Beijing, China)"
# T1 sequence (P08581 25-932 limits assumed): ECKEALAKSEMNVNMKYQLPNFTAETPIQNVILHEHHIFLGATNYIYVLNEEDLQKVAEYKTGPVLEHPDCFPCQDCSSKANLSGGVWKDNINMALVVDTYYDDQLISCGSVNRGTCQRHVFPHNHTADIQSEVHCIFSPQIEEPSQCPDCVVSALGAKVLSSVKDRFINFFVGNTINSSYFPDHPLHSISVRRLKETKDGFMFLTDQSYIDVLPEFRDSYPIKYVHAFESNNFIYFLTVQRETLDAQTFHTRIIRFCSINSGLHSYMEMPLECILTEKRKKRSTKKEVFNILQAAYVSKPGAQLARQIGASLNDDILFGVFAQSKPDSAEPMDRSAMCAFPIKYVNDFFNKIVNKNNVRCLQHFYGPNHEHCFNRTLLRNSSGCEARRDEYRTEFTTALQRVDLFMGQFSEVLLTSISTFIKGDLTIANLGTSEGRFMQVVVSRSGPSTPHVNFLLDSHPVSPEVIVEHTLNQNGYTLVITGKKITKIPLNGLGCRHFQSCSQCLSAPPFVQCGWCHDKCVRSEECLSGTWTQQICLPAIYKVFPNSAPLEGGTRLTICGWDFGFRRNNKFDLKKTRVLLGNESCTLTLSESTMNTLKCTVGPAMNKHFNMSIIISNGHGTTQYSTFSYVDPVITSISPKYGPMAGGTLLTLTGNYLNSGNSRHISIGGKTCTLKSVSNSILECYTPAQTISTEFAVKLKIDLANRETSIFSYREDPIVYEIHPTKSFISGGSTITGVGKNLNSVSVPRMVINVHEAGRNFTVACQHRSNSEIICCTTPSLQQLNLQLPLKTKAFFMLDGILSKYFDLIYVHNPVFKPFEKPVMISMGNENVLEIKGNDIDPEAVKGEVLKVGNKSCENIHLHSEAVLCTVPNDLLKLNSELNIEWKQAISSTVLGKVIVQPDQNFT
# test.description: SPR (Biacore T200), IgG captured on Protein A CM5 chip, c-Met 0.15-2 nM as analyte
Would you kindly list Relative KD to VMDO2 VH0/Vk0 for each of these binders?
Lab note: record just the number, no unit beside it.

// query Query: Relative KD to VMDO2 VH0/Vk0; subject: VH0/Vk2 (antibody, IgG1, V domains shown, Full IgG1/kappa expressed in HEK 293 EBNA cells) VH: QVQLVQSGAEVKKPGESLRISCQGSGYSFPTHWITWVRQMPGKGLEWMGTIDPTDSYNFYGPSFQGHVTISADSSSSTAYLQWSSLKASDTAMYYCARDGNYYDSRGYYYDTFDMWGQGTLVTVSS VL: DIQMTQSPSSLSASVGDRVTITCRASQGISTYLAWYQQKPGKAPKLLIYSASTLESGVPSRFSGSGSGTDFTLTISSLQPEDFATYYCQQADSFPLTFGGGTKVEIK
// result 0.98

// query Relative KD to VMDO2 VH0/Vk0 lookup needed for VH5/Vk2 (antibody, IgG1, V domains shown, Full IgG1/kappa expressed in HEK 293 EBNA cells) VH: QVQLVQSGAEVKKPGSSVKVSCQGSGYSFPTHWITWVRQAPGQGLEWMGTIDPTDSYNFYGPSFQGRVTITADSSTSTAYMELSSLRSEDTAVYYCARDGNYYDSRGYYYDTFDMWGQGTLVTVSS VL: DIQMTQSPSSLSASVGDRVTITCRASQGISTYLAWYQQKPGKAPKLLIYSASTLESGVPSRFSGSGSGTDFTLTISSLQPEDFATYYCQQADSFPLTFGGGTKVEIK , thanks.
// result 0.81
